# credit: the RNAGym collection of RNA variant scans (doi:10.1073/pnas.2313332121)

Here the recorded polymerase ribozyme fitness (log ratio) is given for each entry.
B1: TPR t1 (parent)
chain: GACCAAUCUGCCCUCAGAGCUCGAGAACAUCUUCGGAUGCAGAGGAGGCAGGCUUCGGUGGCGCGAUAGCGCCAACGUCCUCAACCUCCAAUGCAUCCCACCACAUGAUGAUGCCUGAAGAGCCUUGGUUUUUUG

Variants of: B1
Assay: polymerase ribozyme fitness, log enrichment relative to wild type (log ratio); higher = more active; in vitro selection for triplet polymerase activity
Please respond with just the number, no unit label.

Worked examples, 5 variants total:
>  <CHANGES>
U33G G61A C80G A91C U92A C101U C115G

>  <OBSERVED PROPERTY>
polymerase ribozyme fitness (log ratio)

>  <MEAS VALUE>
-8.32

$$$$
>  <CHANGES>
C8G G36A G44A C70G

>  <OBSERVED PROPERTY>
polymerase ribozyme fitness (log ratio)

>  <MEAS VALUE>
-4.2

$$$$
>  <CHANGES>
C4A G45A G52C

>  <OBSERVED PROPERTY>
polymerase ribozyme fitness (log ratio)

>  <MEAS VALUE>
-2.98

$$$$
>  <CHANGES>
C31U C115A G120A

>  <OBSERVED PROPERTY>
polymerase ribozyme fitness (log ratio)

>  <MEAS VALUE>
-4.78

$$$$
>  <CHANGES>
G63U C70A

>  <OBSERVED PROPERTY>
polymerase ribozyme fitness (log ratio)

>  <MEAS VALUE>
-0.179

$$$$

Next variant, polymerase ribozyme fitness (log ratio) to be filled in.
What the record says about U33A A46C G61A : polymerase ribozyme fitness (log ratio) is -5.04
